# protocol.text: AUC (0 to 24 hrs) in C57BL/6 mouse retina at 172 nM instilled per eye
# Type: ADME, organism-based
# Design: dose 172 nM, time < 24 hr, route ophthalmic
# experimental.setup: topical or ocular, 172 nM per eye
property.measured: AUC(0-t) at 24 h, 0.172 µM (ng·h/mL)
Output spec: scalar in ng·h/mL, unitless text.

Data request, read-out AUC(0-t) at 24 h, 0.172 µM, for Cc1cc(-c2cc(OC(=O)c3ccccc3)ccc2Cl)cc2nnc(Nc3ccc(OCCN4CCCC4)cc3)nc12 63000

---

# protocol.text: Stability at 120 degC after 1 hr
# Type: physicochemical
# experimental.setup: read-out: Stability
# maps each entry to its remaining at 1 h

Data request, read-out remaining at 1 h, for Cc1cc(-c2cc(OC(=O)c3cccnc3)ccc2Cl)cc2nnc(Nc3ccc(OCCN4CCCC4)cc3)nc12 50%

Data request, read-out remaining at 1 h, for Cc1cc(-c2cc(OC(=O)CN)ccc2Cl)cc2nnc(Nc3ccc(OCCN4CCCC4)cc3)nc12 < 20%

Data request, read-out remaining at 1 h, for Cc1cc(-c2cc(OC(=O)c3c(Cl)cccc3Cl)ccc2Cl)cc2nnc(Nc3ccc(OCCN4CCCC4)cc3)nc12 > 90%

Data request, read-out remaining at 1 h, for CC(=O)Oc1ccc(Cl)c(-c2cc(C)c3nc(Nc4ccc(OCCN5CCCC5)cc4)nnc3c2)c1 < 20%

Data request, read-out remaining at 1 h, for Cc1cccc(C)c1C(=O)Oc1ccc(Cl)c(-c2cc(C)c3nc(Nc4ccc(OCCN5CCCC5)cc4)nnc3c2)c1 > 90%

Others:
Data request, read-out remaining at 1 h, for Cc1cc(-c2cc(OC(=O)c3ccc(CN4CCOCC4)cc3)ccc2Cl)cc2nnc(Nc3ccc(OCCN4CCCC4)cc3)nc12 > 90%

Data request, read-out remaining at 1 h, for Cc1ccc(C(=O)Oc2ccc(Cl)c(-c3cc(C)c4nc(Nc5ccc(OCCN6CCCC6)cc5)nnc4c3)c2)cc1 > 90%

Data request, read-out remaining at 1 h, for Cc1cc(-c2cc(OC(=O)c3ccccc3)ccc2Cl)cc2nnc(Nc3ccc(OCCN4CCCC4)cc3)nc12 > 90%

---

# protocol.text: Plasma concentration in C57BL/6 mouse after 24 hrs
# Format: ADME, organism-based
property.measured: concentration at 24 h

Data request, read-out concentration at 24 h, for Cc1cc(-c2cc(OC(=O)c3ccccc3)ccc2Cl)cc2nnc(Nc3ccc(OCCN4CCCC4)cc3)nc12 < 1 ng/mL

---

# protocol.text: Cmax in C57BL/6 mouse retina at 172 nM instilled per eye
# Format: ADME, organism-based
# Set-up: dose 172 nM, route ophthalmic
# experimental.setup: topical or ocular, 172 nM per eye
property.measured: Cmax at 0.172 µM (µM)
Output spec: scalar in µM, unitless text.

Data request, read-out Cmax at 0.172 µM, for Cc1cc(-c2cc(OC(=O)c3ccccc3)ccc2Cl)cc2nnc(Nc3ccc(OCCN4CCCC4)cc3)nc12 [TG100-801] 5.3

---

# protocol.text: Tmax in C57BL/6 mouse cornea at 172 nM instilled per eye
# Format: ADME, organism-based
# experimental.setup: topical or ocular, 172 nM per eye
property.measured: Tmax at 0.172 µM
Your reply should be a number followed by the unit it is expressed in.

Data request, read-out Tmax at 0.172 µM, for Cc1cc(-c2cc(OC(=O)c3ccccc3)ccc2Cl)cc2nnc(Nc3ccc(OCCN4CCCC4)cc3)nc12 24 h
